- Assay comment: qHTS drug screen for cell cycle checkpoint inhibitors in PARPi-resistant BRCA-mutant ovarian cancer cell lines. (AID 1963452)
- Experimental context: PEO1/OlaR viability, CellTiter-Glo luminescence, 96 h; measured here: PEO4 Z-AUC; stronger effect = lower value
- From the text: Women's Malignancies Branch, Center for Cancer Research (CCR), National Cancer Institute (NCI), National Institutes of Health (NIH), Bethesda, MD Poly (ADP-ribose) polymerase inhibitors (PARPis) have changed the treatment paradigm in breast cancer gene (BRCA) - mutant high-grade serous ovarian carcinoma (HGSC). […] 6; Detection; Luminescence, PHERAstar (BMG Labtech) plate reader. […] 6. Luminescence readings were taken using PHERAstar (BMG Labtech). […]
I'd appreciate it if you could label each record using Z-AUC and these ranges: zone 1 (below -1), zone 2 (-1 to below -0.7), zone 3 (-0.7 or more)

Example cases with answers are listed next.
Compound | Class assignment
O=C(O)c1ccc2c(c1)nc(Nc1cccc(Cl)c1)c1ccncc12 | zone 2
Nc1ncnc2c1c(-c1cccc(OCc3ccccc3)c1)cn2C1CC(CN2CCCC2)C1 (stereo not given) | zone 1
CN(C)Cc1c(C(=O)NCCOc2ccc(C(=O)NO)cc2)oc2ccccc12 | zone 1
CS(=O)(=O)c1ccc(-c2cnc(N)c(C(=O)Nc3ccccc3)n2)cc1 | zone 1
CN(C)CC(C)(C)CNc1nn2c(-c3ccccc3)nnc2cc1C1CCC1 | zone 3
COc1ccc(F)c(F)c1C(=O)c1cnc(NC2CCN(S(C)(=O)=O)CC2)nc1N | zone 1

Band assignment needed for Nc1ccccc1NC(=O)c1ccc(CNc2nccc(-c3cccnc3)n2)cc1 please.
zone 3

Then what about the compound O=C(O)CCCc1c[nH]c2ccccc12 ?
zone 3

Then what about the compound C[C@@H](Oc1cc(-c2cnn(C3CCNCC3)c2)cnc1N)c1c(Cl)ccc(F)c1Cl ?
zone 3

Then what about the compound COC(=O)Nc1ccc(-c2nc(N3CCOCC3)c3cnn(C4CCN(Cc5cccnc5)CC4)c3n2)cc1 ?
zone 2

====

- Assay comment: Cytotoxicity counterscreen for NFkB agonists and antagonists (AID 624476);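 further: cells exposed to compound for 48 hours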
- Experimental context: NFkB reporter cell line viability counterscreen; series mostly up to 46.1 µM
Inconclusive results are not listed. Activity calls are given as the source filed them. Calls follow the shape of the dose curve; as a rule, active = well fitted curve in the direction sought with a large enough effect; inconclusive = small, poorly fitted or top-dose-only effect, or another doubt; inactive = no such curve, though single readings can be large or run the other way.
Your reply should match one of these outcome classes. YES (active), NO (inactive)

Given smiles | Class assignment
O=C(O)[C@H](Cc1c[nH]c2ccccc12)N1C(=O)c2ccccc2C1=O | NO
CC(C)CC(=O)Nc1n[nH]c2c1CN(C(=O)C1CCN(C)CC1)C2(C)C | YES
O=C(O)c1ccc2cc(-c3ccc(O)c(C45CC6CC(CC(C6)C4)C5)c3)ccc2c1 | YES
CC(C)(C)c1cnc(CSc2cnc(NC(=O)C3CCNCC3)s2)o1 | YES

What is the recorded call for this compound in the test? CC1(C)OC2=C(C(=O)c3ccccc3C2=O)[C@H](NCc2ccccc2)[C@H]1O
YES

Then what about the compound NC(=O)Nc1cc(-c2cccc(F)c2)sc1C(=O)N[C@H]1CCCNC1 ?
YES

====

- Assay comment: Quantitative High-Throughput drug screen in 47 multiple myeloma cell lines against the NCATS MIPE library collection: UTMC2_PLB cell viability assay (AID 1919868); further: nearly all actives have a fitted effect of over 55% in size
- Experimental context: CellTiter-Glo ATP luminescence, 48 h
Results filed as inconclusive are left out. Calls of active or inactive are those of the source. Calls follow the shape of the dose curve; as a rule, active = well fitted cell-killing curve with a large enough effect; inconclusive = small, poorly fitted or top-dose-only effect, or effect the other way; inactive = no such curve, though single readings can be large or run the other way.
Your reply should match one of these outcome classes. active, inactive

Compound | Class assignment
C[C@@H]1COC(Nc2ccc3ncnc(Nc4ccc(OCc5nccs5)c(Cl)c4)c3c2)=N1 | active
CC(=O)Nc1nc(C)c(-c2ccc(Cl)c(S(=O)(=O)NCCO)c2)s1 | active
CCCCOc1c(C(=O)c2c(F)cc(C)cc2F)cnc2n[nH]cc12 | active
Cc1nc(N)ncc1-c1nc(N2CCOCC2)c2sc(C(C)(C)O)cc2n1 | active
CC(C)C[C@H](NC(=O)CNC(=O)c1cc(Cl)ccc1Cl)B(O)O | active
NC1(Cc2ccc(Cl)cc2)CCN(c2ncnc3[nH]ccc23)CC1 | active
CN[C@H]1CCc2cc(OC)c(OC)c(OC)c2-c2ccc(OC)c(=O)cc21 | active
CC(O)C1C(=O)N2C(C(=O)O)=C(SC3CNC(C(=O)N(C)C)C3)C(C)C12 (stereo not drawn) | inactive

What is the recorded call for this compound in the test? CNC(=O)c1ccc(N2C(=S)N(c3cnc(C#N)c(C(F)(F)F)c3)C(=O)C23CCC3)cc1F
active

Then what about the compound Cc1ccc(-c2ncn(-c3ccc(Nc4nccc(-c5cccc(N6CCOCC6)c5)n4)cc3)n2)cn1 ?
active

Then what about the compound C=CC(=O)Nc1cc2c(Nc3ccc(F)c(Cl)c3)ncnc2cc1OCCCN1CCOCC1 ?
active

The reported numbers originate from PubChem BioAssay (NCATS).
